Protocol description: soluble on expression in E. coli; label from the status in PepcDB or PDB records

{"Seq": "VRVLSYDKEKLNWLYKDPQGLVQGPFSLTQLKAWSDAEYFTKQFRVWMTGESMESAVLLTDVLRL", "soluble on expression in E. coli": "soluble"}
{"Seq": "MARFLLIIGCATLAALASCESKSGEETPQYWRAILGDICQLPSFPRATGDPTRYVECVRQSSFAADRKDLGIWLLRECLPGYEFVASARRCKTVRSVNKQQELCESANATEYNFCPTASAMQFLVEETREAPRQCACPNGEQNCVCPSPEILEPISAVKKVRRSAQQQPLRFSQYPSCPCPQNQPACTCSTNNQQNEQILVSISCCQQQETTTQAPVQMQPCQCTPTQIQQNCQTTTTQQQYCPQQSAPVVQPQPCPLVQGSGVQNAQYQGICSWMIDPLATDPQSRTHYLQCQPAPNNLFCGRWQRMPCAPGTVFDVQSQVCVWDTNSQPGTLPTPAPYVSTQAPQNAQCGCTGGVQIGSCNQNYQCPGQSVCQVGQNAGQQCMVCCYFRKKARRF", "soluble on expression in E. coli": "not soluble"}
{"Seq": "AAMTLASQIATQLLDIKAVYLKPEDPFTWASGIKSPIYTDNRVTLSYPKTRDLIENGFVETIKAHFPEVEVIAGTATAGIPHGAIIADKMTLPFAYIRSKPKDHGAGNQIEGRVLKGQKMVIIEDLISTGGSVLDAAAAASREGADVLGVVAIFTYELPKASQNFKEAGIKLITLSNYTELIAVAKLQGYITNDGLHLLKKFKEDQVNWQQ", "soluble on expression in E. coli": "soluble"}
{"Seq": "EKFRWFISSEGFLVIGGKDATTNEIVVRKYLEENDLYCHADIWGAPHVVIKDGQKAGEKTIFEACQFAVSMSRAWSEGLYSADAYWVYPNQVKKQAPSGEFLPK", "soluble on expression in E. coli": "not soluble"}
